# system under test: UniProtKB P42336
# experiment description: Enzymatic PI3K alpha isoform inhibition (lipid kinase activity, Kinase-Glo luminescence)
# conditions used: Enzymatic assay
measurement name: pIC50
Answers are plain numbers, as −log10 of the molar value.

[[record]]
smiles_str = "COc1ncc(N2CCOc3cnc(O[C@H]4CCN(C(=O)c5ncn(C)c5N)C4)cc32)cc1C(F)(F)F"
system_under_test = "UniProtKB P42336"
test_result = 6.43

[[record]]
smiles_str = "COc1ncc(N2CCOc3ccc(O[C@H]4CCN(C(=O)c5ccnn5C)C4)cc32)cc1C#N"
system_under_test = "UniProtKB P42336"
test_result = 6.43

[[record]]
smiles_str = "COc1ncc(N2CCOc3cnc(O[C@H]4CCN(C(=O)C5CCS(=O)(=O)CC5)C4)cc32)cc1C#N"
system_under_test = "UniProtKB P42336"
test_result = 6.15


Field: next compound
**Q:** What does the record list as pIC50 for COc1ncc(N2CCOc3ccc(O[C@H]4CCN(C(=O)c5cncn5C)C4)cc32)cc1C#N ?
**A:** 6.87

====

Give IC50 for every item shown.
# system under test: PI3K alpha (Homo sapiens (Human))
# Sequence (P42336 other isoform, or with tags, fused parts or gaps): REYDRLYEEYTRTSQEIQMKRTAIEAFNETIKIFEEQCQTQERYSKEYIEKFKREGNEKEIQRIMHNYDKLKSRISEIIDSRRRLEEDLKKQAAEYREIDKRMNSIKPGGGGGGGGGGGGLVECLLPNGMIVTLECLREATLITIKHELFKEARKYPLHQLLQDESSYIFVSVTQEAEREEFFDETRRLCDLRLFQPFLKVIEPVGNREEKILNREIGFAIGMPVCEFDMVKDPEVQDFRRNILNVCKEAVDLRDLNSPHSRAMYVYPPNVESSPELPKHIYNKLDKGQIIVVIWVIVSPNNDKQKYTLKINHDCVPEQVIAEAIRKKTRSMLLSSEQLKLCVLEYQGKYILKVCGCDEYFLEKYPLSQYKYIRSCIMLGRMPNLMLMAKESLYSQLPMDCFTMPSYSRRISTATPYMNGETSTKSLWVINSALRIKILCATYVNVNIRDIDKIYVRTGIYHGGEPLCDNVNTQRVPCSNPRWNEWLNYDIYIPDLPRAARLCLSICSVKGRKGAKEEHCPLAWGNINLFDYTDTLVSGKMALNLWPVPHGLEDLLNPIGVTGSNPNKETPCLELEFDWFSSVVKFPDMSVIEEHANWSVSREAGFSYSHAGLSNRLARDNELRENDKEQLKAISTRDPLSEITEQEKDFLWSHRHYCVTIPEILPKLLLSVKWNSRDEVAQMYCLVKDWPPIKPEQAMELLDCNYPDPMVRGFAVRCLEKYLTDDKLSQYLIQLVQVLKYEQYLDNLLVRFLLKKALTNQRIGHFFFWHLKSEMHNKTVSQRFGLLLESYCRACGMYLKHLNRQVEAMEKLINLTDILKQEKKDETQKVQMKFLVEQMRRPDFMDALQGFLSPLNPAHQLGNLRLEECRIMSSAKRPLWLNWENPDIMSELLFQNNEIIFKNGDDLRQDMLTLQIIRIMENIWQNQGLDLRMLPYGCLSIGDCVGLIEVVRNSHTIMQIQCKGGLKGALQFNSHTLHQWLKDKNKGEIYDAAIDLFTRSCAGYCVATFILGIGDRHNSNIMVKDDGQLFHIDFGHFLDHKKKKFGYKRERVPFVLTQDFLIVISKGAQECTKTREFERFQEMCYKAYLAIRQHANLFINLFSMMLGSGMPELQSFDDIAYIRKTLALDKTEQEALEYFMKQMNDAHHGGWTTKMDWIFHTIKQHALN
# experiment description: Enzymatic PI3K alpha isoform inhibition (lipid kinase activity, Kinase-Glo luminescence)
# conditions used: Enzymatic assay

[[record]]
compound = "COCC(=O)N1CC[C@H](Oc2ccc3c(c2)N(c2cnc(OC)c(C#N)c2)CCO3)C1 [Example D12]"
test_result = "142 nM"


Dear reader, for each entry below, please note its IC50.
1. COc1ncc(N2CCOc3ccc(O[C@H]4CCN(C(=O)c5ccn(C)c(=O)c5)C4)cc32)cc1C#N [Example D19]
2. Cc1cc(N2CCOc3ccc(O[C@H]4CCN(C(=O)Cc5ccncc5)C4)cc32)cnc1S(C)(=O)=O [Example B68]
3. COc1ncc(N2CCOc3cnc(O[C@H]4CCN(C(=O)C5CCOCC5)C4)cc32)cc1C#N [Example F4]
4. CCC(=O)N1C[C@H](Oc2ccc3c(c2)N(c2cnc(OC)c(C#N)c2)CCO3)CO1 [Example D25]
5. COc1ncc(N2CCOc3ccc(O[C@H]4CCN(C(=O)C5CCC(OC)CC5)C4)cc32)cc1C#N (single isomer, unassigned) [Example D36]
6. Cc1cnccc1C(=O)N1CC[C@H](Oc2ccc3c(c2)N(c2cnc(S(C)(=O)=O)c(C)c2)CCO3)C1 [Example B67]
7. Cc1cc(N2CCOc3ccc(O[C@H]4CCN(C(=O)[C@H]5CC[C@H](O)CC5)C4)cc32)cnc1S(C)(=O)=O [Example B50]
8. CCC(=O)N1CC[C@H](Oc2ccc3c(c2)N(c2cnc(OC)c(F)c2)CCO3)C1 [Example A11]

**A:**
1: 273 nM; 2: 840 nM; 3: 577 nM; 4: > 9100 nM; 5: 346 nM; 6: 804 nM; 7: 933 nM; 8: 2280 nM

Please report IC50 for every entry that follows.
1. COc1ncc(N2CCOc3ccc(O[C@H]4CCN(C(=O)c5cnco5)C4)cc32)cc1F [Example B103]
2. Cc1cc(N2CCOc3ccc(O[C@H]4CCN(C(=O)C5CCOCC5)C4)cc32)cnc1Cl [Example B58]
3. COc1ncc(N2CCOc3cnc(O[C@H]4CCN(C(=O)c5cn6ccsc6n5)C4)cc32)cc1C(F)(F)F [Example G1]
4. COCCC(=O)N1CC[C@H](Oc2ccc3c(c2)N(c2cnc(OC)c(OC)c2)CCO3)C1 [Example B46]

**A:**
1: 241 nM; 2: 366 nM; 3: 49 nM; 4: 2080 nM

State the recorded IC50 for every item in the following list.
1. COc1ncc(N2CCOc3ccc(O[C@H]4CCN(C(=O)[C@H]5CC[C@H](O)CC5)C4)cc32)cc1C#N [R]
2. Cn1cnc(C(=O)N2CC[C@H](Oc3ccc4c(c3)N(c3cnc(S(C)(=O)=O)c(C(F)F)c3)CCO4)C2)c1 [Example B74]

**A:**
1. 602 nM
2. 54 nM
